test: Solubility of compound in phosphate buffer at pH 6.5 by nephelometry; format: physicochemical
Readings of solubility kinetic for the listed compounds
Measured quantity: solubility kinetic

{"Compound": "COc1cc2c(cc1OC)C1C(=O)Nc3ccccc3C(=O)CCN1C2=O (centres undefined)", "Result value": "> 320 µM"}
{"Compound": "O=C1CCN2C(=O)CCC2C(=O)Nc2ccccc21 (centres undefined)", "Result value": "> 320 µM"}
{"Compound": "COC(=O)[C@@H]1CC(=O)c2ccccc2NC(=O)C2c3ccccc3C(=O)N21 (some centres undefined)", "Result value": "160 µM"}
{"Compound": "O=C1C[C@@H](CO)N2C(=O)c3ccccc3C2C(=O)Nc2ccccc21 (some centres undefined)", "Result value": "80 µM"}

---

test: Solubility of compound in 0.01 M HCl at pH 2.0 by nephelometry; type: physicochemical
Measured quantity: solubility kinetic

{"Compound": "CC12C(=O)Nc3ccccc3C(=O)CCN1C(=O)c1ccccc12 (stereo unspecified)", "Result value": "160 µM"}
{"Compound": "O=C1Nc2ccccc2CCCN2C(=O)c3ccccc3C12 (stereo unspecified)", "Result value": "160 µM"}
{"Compound": "O=C1CCN2C(C(=O)Nc3ccccc31)c1ccccc1S2(=O)=O (stereo unspecified)", "Result value": "80 µM"}
{"Compound": "O=C1C[C@@H](CO)N2C(=O)c3ccccc3C2C(=O)Nc2ccccc21 (stereo partly specified)", "Result value": "80 µM"}
{"Compound": "O=C1CCN2C(=O)c3ccccc3C2C(=O)Nc2cc(F)ccc21 (stereo unspecified)", "Result value": "160 µM"}
{"Compound": "O=C1CCN2C(=O)c3cc4ccccc4cc3C2C(=O)Nc2ccccc21 (stereo unspecified)", "Result value": "> 320 µM"}
{"Compound": "O=C1CCN2C(=O)c3ccccc3C2C(=O)Nc2ccc(Cl)cc21 (stereo unspecified)", "Result value": "160 µM"}
{"Compound": "O=C1CCn2c(nc3ccccc3c2=O)C(=O)Nc2ccccc21", "Result value": "> 320 µM"}
{"Compound": "COc1ccc2c(c1)C(=O)CCN1C(=O)c3ccccc3C1C(=O)N2 (stereo unspecified)", "Result value": "> 320 µM"}
{"Compound": "O=C1c2ccccc2C23C(=O)Nc4ccccc4C2(O)CCN13 (stereo unspecified)", "Result value": "40 µM"}
{"Compound": "CO/N=C1/CCN2C(=O)c3ccccc3C2C(=O)Nc2ccccc21 (stereo unspecified)", "Result value": "> 320 µM"}

---

Readings of solubility kinetic for the listed compounds
test: Solubility of compound in 0.01 M HCl at pH 2.0 by nephelometry; assay type: physicochemical
Measured quantity: solubility kinetic (µM)

{"Compound": "O=C1CCN2C(=O)c3ccccc3C2C(=O)Nc2cc(F)cc(F)c21 (stereo unspecified)", "Readout units": "µM", "Result comparator": "=", "Result value": 160}
{"Compound": "O=C1CCN2C(=O)CCC2C(=O)Nc2ccccc21 (stereo unspecified)", "Readout units": "µM", "Result comparator": "=", "Result value": 160}
{"Compound": "O=C1CCN2C(=O)c3cc(F)c(F)cc3C2C(=O)Nc2ccccc21 (stereo unspecified)", "Readout units": "µM", "Result comparator": ">", "Result value": 320}
{"Compound": "O=C1CCN2C(=O)c3ccccc3C2C(=O)Nc2ccc(F)cc21 (stereo unspecified)", "Readout units": "µM", "Result comparator": "=", "Result value": 160}
{"Compound": "O=C(C1CCCCC1)N1CC(=O)N2CCc3ccccc3C2C1 (stereo unspecified) [PRAZIQUANTEL]", "Readout units": "µM", "Result comparator": ">", "Result value": 320}
{"Compound": "CCOC(=O)c1ccc2c(c1)C(=O)CCN1C(=O)c3ccccc3C1C(=O)N2 (stereo unspecified)", "Readout units": "µM", "Result comparator": "=", "Result value": 40}
{"Compound": "O=C1Nc2ccccc2C2(O)CCN3C12c1ccccc1S3(=O)=O (stereo unspecified)", "Readout units": "µM", "Result comparator": "=", "Result value": 80}
{"Compound": "O=C1CCN2C(=O)c3c(F)c(F)c(F)c(F)c3C2C(=O)Nc2ccccc21 (stereo unspecified)", "Readout units": "µM", "Result comparator": "=", "Result value": 160}
{"Compound": "COC1CCN2C(=O)c3ccccc3C2C(=O)Nc2ccccc21 (stereo unspecified)", "Readout units": "µM", "Result comparator": "=", "Result value": 80}
{"Compound": "CN1C(=O)C2c3ccccc3C(=O)N2CCC(=O)c2ccccc21 (stereo unspecified)", "Readout units": "µM", "Result comparator": ">", "Result value": 320}
{"Compound": "COC(=O)[C@@H]1CC(=O)c2ccccc2NC(=O)C2c3ccccc3C(=O)N21 (stereo partly specified)", "Readout units": "µM", "Result comparator": "=", "Result value": 80}
{"Compound": "COc1cc2c(cc1OC)C1C(=O)Nc3ccccc3C(=O)CCN1C2=O (stereo unspecified)", "Readout units": "µM", "Result comparator": "=", "Result value": 160}
{"Compound": "O=c1c2c([nH]c3ccccc13)C1c3ccccc3S(=O)(=O)N1C2 (stereo unspecified)", "Readout units": "µM", "Result comparator": "=", "Result value": 40}
{"Compound": "O=C1CCN2C(=O)c3cc(Cl)c(Cl)cc3C2C(=O)Nc2ccccc21 (stereo unspecified)", "Readout units": "µM", "Result comparator": "=", "Result value": 80}
{"Compound": "O=C1CCN2C(=O)[C@H]3CCCC[C@H]3C2C(=O)Nc2ccccc21 (stereo partly specified)", "Readout units": "µM", "Result comparator": ">", "Result value": 320}
{"Compound": "O=C1CCN2C(=O)c3ccccc3C2C(=O)Nc2ccccc21 (stereo unspecified)", "Readout units": "µM", "Result comparator": "=", "Result value": 160}

---

test system: Schistosoma mansoni; experiment: Anti-schistosomal activity against adult Schistosoma mansoni assessed as parasite viability at 10 uM measured after 3 days relative to control; type: functional; settings: time 3 day
Readings of Activity for the listed molecules

{"Molecule": "O=c1c2c([nH]c3ccccc13)C1c3ccccc3S(=O)(=O)N1C2 (centres undefined)", "Readout units": "%", "Activity": 47}
{"Molecule": "O=C1Nc2ccccc2C2(O)CCN3C12c1ccccc1S3(=O)=O (centres undefined)", "Readout units": "%", "Activity": 61}
{"Molecule": "O=C(C1CCCCC1)N1CC(=O)N2CCc3ccccc3C2C1 (centres undefined)", "Readout units": "%", "Activity": 100}
{"Molecule": "COc1ccc2c(c1)C(=O)CCN1C(=O)c3ccccc3C1C(=O)N2 (centres undefined)", "Readout units": "%", "Activity": 42}

---

assay: Cytotoxicity against rat L6 cells; assay type: toxicity, cell-based
pIC50: −log10 of the molar value.

{"Molecule": "O=C1CCN2C(=O)c3cc(F)c(F)cc3C2C(=O)Nc2ccccc21 (stereo unspecified)", "Result comparator": "<", "pIC50": 3.54}
{"Molecule": "O=C1CCN2C(=O)c3ccccc3C2C(=O)Nc2ccc(Cl)cc21 (stereo unspecified)", "Result comparator": "=", "pIC50": 3.66}
{"Molecule": "O=C1CCN2C(=O)c3cc(Cl)c(Cl)cc3C2C(=O)Nc2ccccc21 (stereo unspecified)", "Result comparator": "=", "pIC50": 3.72}
{"Molecule": "O=C1Nc2ccccc2C2(O)CCN3C12c1ccccc1S3(=O)=O (stereo unspecified)", "Result comparator": "<", "pIC50": 3.54}
{"Molecule": "O=C1C[C@@H](CO)N2C(=O)c3ccccc3C2C(=O)Nc2ccccc21 (stereo partly specified)", "Result comparator": "=", "pIC50": 3.64}
{"Molecule": "COC1CCN2C(=O)c3ccccc3C2C(=O)Nc2ccccc21 (stereo unspecified)", "Result comparator": "<", "pIC50": 3.51}
{"Molecule": "O=C1CCN2C(=O)c3ccccc3C2C(=O)Nc2cc(F)ccc21 (stereo unspecified)", "Result comparator": "<", "pIC50": 3.52}
{"Molecule": "O=C1c2ccccc2C23C(=O)Nc4ccccc4C2(O)CCN13 (stereo unspecified)", "Result comparator": "<", "pIC50": 3.48}
{"Molecule": "O=C1CCn2c(nc3ccccc3c2=O)C(=O)Nc2ccccc21", "Result comparator": "=", "pIC50": 4.28}
{"Molecule": "CO/N=C1/CCN2C(=O)c3ccccc3C2C(=O)Nc2ccccc21 (stereo unspecified)", "Result comparator": "<", "pIC50": 3.52}
{"Molecule": "COc1cc2c(cc1OC)C1C(=O)Nc3ccccc3C(=O)CCN1C2=O (stereo unspecified)", "Result comparator": "=", "pIC50": 3.82}
{"Molecule": "O=C1CCN2C(=O)c3c(F)c(F)c(F)c(F)c3C2C(=O)Nc2ccccc21 (stereo unspecified)", "Result comparator": "=", "pIC50": 4.01}
{"Molecule": "O=C1CCN2C(=O)c3ccccc3C2C(=O)Nc2ccccc21 (stereo unspecified)", "Result comparator": "<", "pIC50": 3.48}
{"Molecule": "O=C1CCN2C(=O)c3cc4ccccc4cc3C2C(=O)Nc2ccccc21 (stereo unspecified)", "Result comparator": "=", "pIC50": 4.01}
{"Molecule": "O=C1CCN2C(=O)[C@H]3CCCC[C@H]3C2C(=O)Nc2ccccc21 (stereo partly specified)", "Result comparator": "=", "pIC50": 3.66}
{"Molecule": "COc1ccc2c(c1)C(=O)CCN1C(=O)c3ccccc3C1C(=O)N2 (stereo unspecified)", "Result comparator": "=", "pIC50": 3.89}
{"Molecule": "O=C1CCN2C(=O)c3ccccc3C2C(=O)Nc2ccc(F)cc21 (stereo unspecified)", "Result comparator": "<", "pIC50": 3.51}
{"Molecule": "O=C1CCN2C(C(=O)Nc3ccccc31)c1ccccc1S2(=O)=O (stereo unspecified)", "Result comparator": "=", "pIC50": 3.89}
{"Molecule": "O=C1Nc2ccccc2CCCN2C(=O)c3ccccc3C12 (stereo unspecified)", "Result comparator": "<", "pIC50": 3.47}
{"Molecule": "COC(=O)[C@@H]1CC(=O)c2ccccc2NC(=O)C2c3ccccc3C(=O)N21 (stereo partly specified)", "Result comparator": "<", "pIC50": 3.57}
{"Molecule": "CC12C(=O)Nc3ccccc3C(=O)CCN1C(=O)c1ccccc12 (stereo unspecified)", "Result comparator": "<", "pIC50": 3.52}
{"Molecule": "CCOC(=O)c1ccc2c(c1)C(=O)CCN1C(=O)c3ccccc3C1C(=O)N2 (stereo unspecified)", "Result comparator": "<", "pIC50": 3.59}
{"Molecule": "O=c1c2c([nH]c3ccccc13)C1c3ccccc3S(=O)(=O)N1C2 (stereo unspecified)", "Result comparator": "=", "pIC50": 3.70}
{"Molecule": "O=C1CCN2C(=O)CCC2C(=O)Nc2ccccc21 (stereo unspecified)", "Result comparator": "<", "pIC50": 3.41}
{"Molecule": "O=C1CCN2C(=O)c3ccccc3C2C(=O)Nc2cc(F)cc(F)c21 (stereo unspecified)", "Result comparator": "=", "pIC50": 3.70}
{"Molecule": "CN1C(=O)C2c3ccccc3C(=O)N2CCC(=O)c2ccccc21 (stereo unspecified)", "Result comparator": "<", "pIC50": 3.52}

These measurements were taken from ChEMBL document CHEMBL6071177.
